Molecular target: T1, PSMA Fab
T1 construct: also called 006 PSMA Fab; anti-PSMA Fab
Assay: competition ELISA; peptide 0-100 µM with 0.3 nM PSMA Fab on plate-captured biotinylated PSMA
Overview of recorded IC50 for various binders
Record the value in nM, omitting the unit from your answer.

// IC50 lookup, binder = VQIQCRPAWMCLGF (From the Peptide-180 optimisation phage library) [Peptide-264] , result: 1140

Quick note, IC50 for YFVQCRPAWMCEGF (From the Peptide-180 optimisation phage library) [Peptide-261] landed at 1300

Lab note: measured IC50 of TVAYCKPAWMCQGF (From the Peptide-180 optimisation phage library) [Peptide-283] was 820

---
The binder LEPLCVPRWMCVGF (From the Peptide-180 optimisation phage library) [Peptide-273] showed IC50 equal to 900

Lookup result for VERLCTPAWMCHGF (From the Peptide-180 optimisation phage library) [Peptide-285] ; measured IC50: 710

Just so you know, measured IC50 for AEVKCIPQWMCQGF (From the Peptide-180 optimisation phage library) [Peptide-265] came out at 1780

Short answer for IVPLCKPAWMCKLF (From the Peptide-180 optimisation phage library) [Peptide-262] : IC50 was 1300

// recorded IC50 for EEPLCRPVWMCEGF (From the Peptide-180 optimisation phage library) [Peptide-269] : 9140

IC50 reported for this binder VLKYCIPDWMCAGI (From the Peptide-180 optimisation phage library) [Peptide-286] : 640
